System: DMS 114 small cell lung
experimental_protocol: NCI tumour cell line growth inhibition, 48 h
The reader will find reported TGI values listed item by item below.
measured_property: TGI

> print(dat)
                                   compound  measured.property  value.reported
1  CCOc1ccccc1N1C(=O)C(=O)C(c2nc3ccccc3o2)/C(=N\N)C1=O (centres undefined)                TGI        > 100 µM
2       CC(C)N1CCC2(CC1)NNc1ncccc1-n1cccc12                TGI        > 100 µM
3  Cc1ccc(S(=O)(=O)C2c3nc4ccccc4cc3-c3nc4ccccc4nc32)cc1 (centres undefined)                TGI        > 100 µM
4  CN(C(=O)C12C3(C(=O)C(C)(C)C)C4C5(C#N)C3C1(C(=O)C(C)(C)C)C5C42C(=O)C(C)(C)C)C(C)(C)C (centres undefined)                TGI         > 50 µM

* * *

System: SK-MEL-5 melanoma
experimental_protocol: NCI tumour cell line growth inhibition, 48 h; in the data active means GI50 below about 0.43 µM; inactive means the rest
Outcomes: active, inactive

> print(dat)
                                   compound  class.name
1  O=C1C(Cl)=C(Nc2cccc(O)c2)C(=O)N1Cc1ccc(Cl)cc1    inactive
2  O=CC(Br)C(Br)c1ccccc1 (centres undefined)    inactive
3  COc1ccc(-c2nn(-c3cccc(Cl)c3)cc2-c2c(C#N)c(=O)n3[nH]c(-c4ccc(C)cc4)nc3c2C#N)cc1    inactive
4  O=C(Nc1ccc2[nH]c(C(=O)N3CC(CCl)c4c3cc([N+](=O)[O-])c3ccccc43)cc2c1)c1cc2ccccc2o1 (centres undefined)    inactive
5  C[n+]1c2ccccc2c(Nc2ccc(NS(=O)(=O)CCCCN=C(N)N)cc2)c2ccc(N)cc21    inactive
6  Cc1cc([N+](=O)[O-])ccc1NS(=O)(=O)c1cc(Cl)ccc1Cl    inactive
7             Nc1nc2ccc3[nH]ncc3c2c2c1CCCC2    inactive
8  Oc1ccc2ccccc2c1C1NN=C(c2ccccc2)S1 (centres undefined)      active
9  COc1ccc2c3c(c4ccccc4cc13)C(=O)N(CCN(C)CCN)C2=O      active

* * *

Test system: NCI-H460 lung
experimental_protocol: NCI tumour cell line growth inhibition, 48 h
measured_property: TGI

> print(dat)
                                   compound  value.reported
1  CN(C(=O)C12C3(C(=O)C(C)(C)C)C4C5(C#N)C3C1(C(=O)C(C)(C)C)C5C42C(=O)C(C)(C)C)C(C)(C)C (centres undefined)         > 50 µM
2  COc1cc2c(cc1OC)C(CC1(O)CCCCC1)N(S(=O)(=O)c1ccc(C)cc1)CC2 (centres undefined)         > 10 µM
3  O=C(Cn1c(=O)oc2ccc(C(=O)c3ccccc3Cl)cc21)c1ccc([N+](=O)[O-])cc1         55.7 µM
4  C[C@]12CC[C@H](O)CC1=CC[C@@H]1[C@@H]2CC[C@]2(C)c3nc(Cl)ccc3C[C@@H]12        > 100 µM

* * *

Test system: CCRF-CEM leukemia
experimental_protocol: NCI tumour cell line growth inhibition, 48 h
The reader will find reported TGI values listed item by item below.

compound	TGI
CCOc1cc2c(cc1O)CC[C@@H]1[C@@H]2CC[C@]2(C)C(OS(=O)OC3CC[C@@H]4[C@H]5CCc6cc(O)c(OCC)cc6[C@@H]5CC[C@@]34C)CC[C@@H]12 (some centres not stated)	> 100 µM
CCCCCCCCC(O)C#CC(N)=O (configuration not stated)	72.5 µM
CC1=Nc2c(C#N)ncn2N=C(C)C1	> 100 µM
CO[C@H]1C[C@H](n2cc(C)c(=O)[nH]c2=O)O[C@@H]1CO	> 100 µM
O=C(Nc1ccc2[nH]c(C(=O)N3CC(CCl)c4c3cc([N+](=O)[O-])c3ccccc43)cc2c1)c1cc2ccccc2o1 (configuration not stated)	377 µM
CCOC(=O)C1=NN(c2ccc(Cl)cc2)C2=CC(C)=NN(C)C(=S)N21	> 100 µM
CCOc1ccccc1N1C(=O)C(=O)C(c2nc3ccccc3o2)/C(=N\N)C1=O (configuration not stated)	> 100 µM
CSc1nc(SC)c2c(C(N)=S)[nH]nc2n1	69.5 µM
CN[C@@H]1C[C@H]2O[C@@](C)([C@@H]1OC)n1c3ccccc3c3c4c(c5c6ccccc6n2c5c31)C(=O)N[C@H]4O	> 10 µM
O=c1cc(-c2ccccc2)[nH]c2c(Cl)cccc12	> 100 µM
C[C@]12CC[C@H](O)CC1=CC[C@@H]1[C@@H]2CC[C@]2(C)c3nc(Cl)ccc3C[C@@H]12	> 50.4 µM
CSc1n(Cc2ccc3ccccc3c2)c(C)c[n+]1Cc1ccc2ccccc2c1	2.31 µM
O=C(NCCN1CCC(O)CC1)c1cc2c(o1)C(=O)c1ccccc1C2=O	> 30.1 µM
COc1c2c(c(CC=C(C)C)c3oc(=O)c(-c4ccc(O)cc4)c(O)c13)OC(C)(C)C=C2	76.8 µM
COc1ccc(SC2c3ccc(C)cc3Oc3nc(N)c(C#N)c(N)c32)cc1 (configuration not stated)	7.67 µM
CCOC(=O)[C@H]1CSC[C@@H](C(=O)OC)N1	> 100 µM
COc1ccc2nc(NCN3C(=O)c4ccccc4C3=O)sc2c1	> 100 µM
